Items are presented alongside their recorded MIC.
Tested on: Streptococcus pneumoniae
Assay Protocol: Antibacterial activity against erythromycin-resistant Streptococcus pneumoniae SPN19-14 assessed as inhibition of visible bacterial growth incubated for 18 hrs by broth microdilution method
Type: functional
Recorded Endpoint: MIC (µg/mL)

[[record]]
item_smiles = "CC[C@H]1OC(=O)[C@H](C)[C@@H](O[C@H]2C[C@@](C)(OC)[C@@H](O)[C@H](C)O2)[C@H](C)[C@@H](O[C@@H]2O[C@H](C)C[C@H](N(C)C)[C@H]2O)[C@](C)(OC)C[C@@H](C)C(=O)[C@H](C)[C@@H](O)[C@]1(C)O"
endpoint_value = 0.5

[[record]]
item_smiles = "CC[C@H]1OC(=O)[C@H](C)C(=O)[C@H](C)[C@@H](O[C@@H]2O[C@H](C)C[C@H](N(C)C)[C@H]2O)[C@](C)(OC)C[C@@H](C)C(=O)[C@H](C)[C@H]2N(CCCOC(=O)Nc3cccc(C)c3)C(=O)O[C@]12C"
endpoint_value = 1

[[record]]
item_smiles = "CC[C@H]1OC(=O)[C@@](C)(F)C(=O)[C@H](C)[C@@H](O[C@@H]2O[C@H](C)C[C@H](N(C)C)[C@H]2O)[C@](C)(OC)C[C@@H](C)C(=O)[C@H](C)[C@H]2N(CCCOC(=O)Nc3cccc(C(F)(F)F)c3)C(=O)O[C@]12C"
endpoint_value = 2

[[record]]
item_smiles = "CCOc1ccccc1NC(=O)OCCCN1C(=O)O[C@]2(C)[C@@H](CC)OC(=O)[C@@](C)(F)C(=O)[C@H](C)[C@@H](O[C@@H]3O[C@H](C)C[C@H](N(C)C)[C@H]3O)[C@](C)(OC)C[C@@H](C)C(=O)[C@H](C)[C@@H]12"
endpoint_value = 0.06

